Experimental system: Serine/threonine-protein kinase mTOR (Homo sapiens, UniProt P42345)
Test method notes: Inhibition of recombinant N-terminally GST-tagged mTOR (1360 to 2549 aa) (unknown origin) assessed as inhibition of 27BP1 phosphorylation after 90 mins by TR-FRET assay
Documented pIC50 across a set of compounds
API: returns pIC50 as number; meaning -log10 of concentration in mol/L.

>>> measured_result("COc1ncc(Nc2ncc(C(O)C(F)(F)F)cc2-c2nc(C)nc(N)n2)cc1F (racemic)")
5.66
>>> measured_result("COc1ncc(Nc2ncc(C(C)(C)O)cc2-c2nc(C)nc(N)n2)cc1F")
5.11
>>> measured_result("COc1cc(Nc2ncc(C(C)(C)O)cc2-c2nc(C)nc(N)n2)cnc1OC")
4.97
>>> measured_result("Cc1nc(N)nc(-c2cc(C(C)(C)O)cnc2Nc2cncc(F)c2)n1")
5.60
>>> measured_result("CCc1cc(Nc2ncc(C(C)(C)O)cc2-c2nc(C)nc(N)n2)cnc1OC")
4.80

# input What reported pIC50 corresponds to COc1ncc(Nc2ncc([C@H](C)CO)cc2-c2nc(C)nc(N)n2)cc1F on Serine/threonine-protein kinase mTOR (Homo sapiens, UniProt P42345)?
# output 4.95

# input What reported pIC50 corresponds to Cc1nc(N)nc(-c2cc(C(C)(C)O)cnc2Nc2cncc(S(=O)(=O)c3ccccc3)c2)n1 on Serine/threonine-protein kinase mTOR (Homo sapiens, UniProt P42345)?
# output 5.17

# input What reported pIC50 corresponds to COc1ncc(Nc2ncc(C3(O)CC3)cc2-c2nc(C)nc(N)n2)cc1F on Serine/threonine-protein kinase mTOR (Homo sapiens, UniProt P42345)?
# output 5.43

# input What reported pIC50 corresponds to COc1ccc(Nc2ncc(C(C)(C)O)cc2-c2nc(C)nc(N)n2)cn1 on Serine/threonine-protein kinase mTOR (Homo sapiens, UniProt P42345)?
# output 6.10

# input What reported pIC50 corresponds to COc1ncc(Nc2ncc(C(C)(C)O)cc2-c2nc(C)nc(N)n2)cc1C on Serine/threonine-protein kinase mTOR (Homo sapiens, UniProt P42345)?
# output 5.11

# input What reported pIC50 corresponds to COc1cncc(Nc2ncc(C(C)(C)O)cc2-c2nc(C)nc(N)n2)c1 on Serine/threonine-protein kinase mTOR (Homo sapiens, UniProt P42345)?
# output 5.68

Where these numbers come from: ChEMBL document CHEMBL3352452
